ASSAY SYSTEM: T1, human PACAP38 (human, not fully specified; C-terminal lysine is amidated; N-terminal or C-terminal biotin in the HTRF and PC-12 cell binding assays)
T1 construct: synthetic peptide, bought; also called huPACAP (1-38)
T1 peptide: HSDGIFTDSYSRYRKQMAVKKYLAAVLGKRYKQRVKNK
PROTOCOL DESCRIPTION: HTRF binding, biotin-PACAP38
Method: In parallel, 10 μl of an antibody dilution series (highest final concentration of 100 nM) were incubated with 10 μl of N-terminal or C-terminal biotinylated PACAP38 (35 nM final) alone, or in combination with either PACAP27 (350 nM final) or VIP (350 nM final), i.e., 10× PACAP27 or 10×VIP, respectively, in a HTRF plate. […] Fluorescence was measured at 620 and 665 nm with a delay of 300 μsec. […]
MEASUREMENT KIND: EC50 (nM)
Response body: numeric value in nM, unit text excluded.

Please review the entries below; each comes with its answer.
| BINDER | UNIT INFO | EC50 |
| --- | --- | --- |
| anti-PACAP antibody Ab18 (antibody, human IgG1, kappa, N297A, V domains shown, full-length rabbit/human chimeric antibody) VH: QSVEESGGRLVTPGTPLTLTCTVSGFSLSSAALSWVRQAPGKGLEWIGIIDKGVMSYYASWAKGRFTISKTSSTTVDLKVTSPTTEDTATYFCARGGGEFFIWGQGTLVTVSS VL: AQVLTQTPSSVSAAVGGTVTINCQSSKSVYNNNWLSWYQQKPGQPPKFLIYQASNLASGVPSRFKGSGSGTQFTLTISDLECDDAATYYCAGGYSGNIVGFGGGTEVVVKR | nM | 0.48 |
| anti-PACAP antibody Ab19 (antibody, human IgG1, kappa, N297A, V domains shown, full-length rabbit/human chimeric antibody) VH: QSVEASGGRLVTPGTPLTLTCTVSGFSLSSATMNWVRQAPGKGLEWIGLIGGNDERYYASWAKGRFTISKTSSTTVDLKMTSPTTEDTATYFCARGGGEFFIWGPGTLVTVSS VL: AQVLTQTPSSVSAAVGGTVTINCQSSESVYTNDRLSWYQQKPGQPPKLLIYEASKLASGVPPRFSGSGSGTQFTLTISDLECDDAATYYCAGAYSTSIHGFGGGTEVVVKR | nM | 0.43 |
| anti-PACAP antibody Ab1 (antibody, human IgG1, kappa, N297A, V domains shown, full-length rabbit/human chimeric antibody) VH: QSVEESGGRLVTPGTPLTLTCTVSGFSLSSAVMNWVRQAPGKGLEWIGSIVASGTTYYASWANGRFTISKTSSTTMDLKMTSPTTEDTATYFCARGGGEFFIWGPGTLVTVSS VL: DPVMTQTPSSTSAAVGGTVTISCQSSESVYSNYLSWYQQKPGQPPNFLIYQASNLASGVPSRFKGSGSGTQFTLTITDLECDDAATYYCAGGYSENIVGFGGGTEVVVKR | nM | 0.43 |

Prompt: Which value of EC50 has been reported for anti-PACAP antibody Ab1.H (antibody, human IgG1, kappa, N297A, V domains shown, humanized form of Ab1, full length) VH: EVQLVESGGGLVQPGGSLRLSCAASGFTVSSAVMNWVRQAPGKGLEWIGSIVASGTTYYASSANGRFTISRDNSKNTLYLQMNSLRAEDTAVYYCARGGGEFFIWGQGTLVTVSS VL: DIQMTQSPSTLSASVGDRVTITCQSSESVYSNYLSWYQQKPGKAPKFLIYQASNLASGVPSRFSGSGSGTEFTLTISSLQPDDFATYYCAGGYSENIVGFGGGTKVEIKR in the records?
Completion: 0.46

Prompt: Thanks! And anti-PACAP antibody Ab8 (antibody, human IgG1, kappa, N297A, V domains shown, full-length rabbit/human chimeric antibody) VH: LEQSGGGAEGGLVKPGGSLELCCKASGFSLTTSHWMCWVRQAPGKGLNWIGCISAGSGDADYATWVDAQFTLSRDIDQNTGCLQLNSLTPADTAMYYCTINFELWGQGTLVTVSS VL: AQVLTQTPSSVSAAVGGTVTINCQSSPSVYSSYLSWFQQKPGQPPKFLIYEASKLASGVPSRFSGSGSGTQFTLTISGVQCSDAATYYCLGAYDCGRTDCHAFGGGTEVVVKR ?
Completion: 0.48
